Measured values drawn from patent US20240084003A1 for this set.

Biological target: T1, CD22 on cynomolgus monkey peripheral blood B cells (cynomolgus monkey (Macaca fascicularis))
T1 construct: whole, on cells; also called cynomolgus monkey B cells
Assay: FACS, cynomolgus PBMC, CD20+ B cells, antibody 1 nM
Excerpt: The monkey peripheral blood mononuclear cells were extracted from fresh cynomolgus monkey peripheral blood (purchased from Shanghai Medicilon Inc.) according to the instructions of Ficoll-Paque Plus (purchased from GE Healthcare, catalog number: 171440-02). After the cell suspension was centrifuged, the cells were resuspended in PBS containing 1% BSA, and then the cells were counted. […]
Label fulfilled when Proportion of chimeric antibody positive cells to B cells (%) >= 40%; otherwise not fulfilled.

>  <binder>
F1.200.11 (antibody, human IgG1, kappa, V domains shown, human-murine chimeric IgG1 kappa) VH: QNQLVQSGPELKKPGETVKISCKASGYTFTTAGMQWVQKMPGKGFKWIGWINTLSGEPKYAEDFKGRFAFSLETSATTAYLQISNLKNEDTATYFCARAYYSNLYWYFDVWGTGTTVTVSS VL: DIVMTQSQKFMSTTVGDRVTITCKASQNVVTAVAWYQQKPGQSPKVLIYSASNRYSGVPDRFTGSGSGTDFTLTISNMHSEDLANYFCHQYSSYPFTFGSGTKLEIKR

>  <label>
not fulfilled

$$$$
>  <binder>
F1.245.2 (antibody, human IgG1, kappa, V domains shown, human-murine chimeric IgG1 kappa) VH: EVQLQQSGAELVKPGASVKLSCTGSGFNIKDYYIHWVKQRTEQGLEWMGRIDPEDGETEYAPKFQDEATITSDTSSNTAYLQLSSLTYEDTAVYYCAREAAGYFYRGSSYGYFDVWGTGTTVTVSS VL: DFQMTQTTSFLSASLGDRVTISCSASQDISNYLNWYQQKPDGTVKLLIYYTSSLHSGVPSRFSGSGSGTDYSLTISNLEPEDIATYYCQQYSMLPYTFGGGTKLEMER

>  <label>
not fulfilled

$$$$
>  <binder>
F1.105.11 (antibody, human IgG1, kappa, V domains shown, human-murine chimeric IgG1 kappa; VL name legible) VH: EVQLQQSGPVLVKPGASVKMSCKASGYTFSDYFMNWVKQSHGKSLEWIGIINSYSGGTSYNQKFKGKATLTVDKSSSTAYMELNSLTSEDSAVYYCARWMDYWGQGTSVTVSS VL: DVQITQSPSYLAASPGETITINCRTSESISKHLAWYQEKPGKTNKLLIYSGSTLQSGIPSRFSGSGSGTDFTLTISSLEPEDFAMYYCQQHNEYPWTFGGGTKLEIKR

>  <label>
fulfilled

$$$$
>  <binder>
F2.151.13 (antibody, human IgG1, lambda, V domains shown, human-murine chimeric IgG1 lambda) VH: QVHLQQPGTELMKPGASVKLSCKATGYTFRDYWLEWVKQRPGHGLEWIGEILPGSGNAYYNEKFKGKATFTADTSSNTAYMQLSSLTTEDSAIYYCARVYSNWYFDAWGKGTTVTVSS VL: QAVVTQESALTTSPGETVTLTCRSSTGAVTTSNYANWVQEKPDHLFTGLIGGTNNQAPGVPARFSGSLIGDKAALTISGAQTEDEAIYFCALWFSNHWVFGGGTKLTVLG

>  <label>
not fulfilled

$$$$

Kindly consider the entry below.
In: Confirm if Proportion of chimeric antibody positive cells to B cells (%) reported for the binder F1.192.1 (antibody, human IgG1, kappa, V domains shown, human-murine chimeric IgG1 kappa) VH: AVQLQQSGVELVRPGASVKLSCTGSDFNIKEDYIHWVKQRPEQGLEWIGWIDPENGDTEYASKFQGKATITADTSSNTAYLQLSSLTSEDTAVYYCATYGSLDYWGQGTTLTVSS VL: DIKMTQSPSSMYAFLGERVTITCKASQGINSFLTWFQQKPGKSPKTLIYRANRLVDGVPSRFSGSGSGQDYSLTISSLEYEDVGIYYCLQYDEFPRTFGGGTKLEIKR is 40% or above.
Out: not fulfilled
